- System: WM793 cells
- Assay: Cell proliferation assay (CellTiter-Glo)
- Format: cell-based
- Test context: Homo sapiens, WM793, 72 h, 3 d, read-out: Cell proliferation qualified AC50
API: label(entry) gives 1 if the entry's AC50 is strictly smaller than 100 nM; on equality or larger values it gives -1.

Hi there! Is AC50 for `Cc1c(C[C@H]2CC[C@H](OC3CCOCC3)CC2)c2ccc(F)cc2n1C(=O)N1CC[C@@](C(=O)N[C@H]2CC[C@H](C(=O)O)C[C@@H]2C)(c2ccc(F)cc2)C[C@@H]1C` below 100 nM, do you know?
1

Please check: AC50 for CN1C[C@@H](F)[C@@H](NC(=O)C2(c3ccc(F)cc3)CCN(C(=O)c3c(C(F)F)n(CC4CCOCC4)c4ccc(Cl)cc34)CC2)C1 [Example 11i] , strictly under 100 nM or not?
1

hey, is AC50 for `COCCc1c(C[C@H]2CC[C@H](OC(C)C)CC2)c2ccc(Cl)cc2n1C(=O)N1CCC(C(=O)N[C@H]2CC[C@H](C(=O)O)C[C@@H]2C)(c2ccc(F)cc2)CC1` lower than 100 nM or not?
1

Just for reference, patent US20250092036A1 is where these values come from.
